Target: MAO B (Rattus norvegicus, UniProt P19643)
Sequence (P19643 1-520): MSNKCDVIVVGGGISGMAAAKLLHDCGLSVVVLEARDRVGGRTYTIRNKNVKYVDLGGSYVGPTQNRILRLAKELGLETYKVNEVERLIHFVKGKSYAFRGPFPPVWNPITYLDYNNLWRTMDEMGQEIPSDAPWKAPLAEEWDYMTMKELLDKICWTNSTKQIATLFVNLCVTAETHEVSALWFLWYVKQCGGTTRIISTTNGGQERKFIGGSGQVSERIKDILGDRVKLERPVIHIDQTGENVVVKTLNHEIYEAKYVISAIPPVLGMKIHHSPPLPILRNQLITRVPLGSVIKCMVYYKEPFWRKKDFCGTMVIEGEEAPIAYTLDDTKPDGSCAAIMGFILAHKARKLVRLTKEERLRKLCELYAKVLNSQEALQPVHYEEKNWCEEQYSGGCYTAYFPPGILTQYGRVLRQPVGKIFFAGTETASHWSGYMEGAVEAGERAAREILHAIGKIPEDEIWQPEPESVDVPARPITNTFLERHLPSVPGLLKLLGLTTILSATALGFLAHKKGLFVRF
IC50 reference

Compound: Cc1c(Cl)c(=O)oc2cc(OCc3cc(C(C)C)n(C)n3)ccc12 [Example 54]
Units text: nM
IC50: 1.5

Compound: Cc1c(C)c2ccc(OCc3cc(CC(C)C)no3)cc2oc1=O [Example 34]
Units text: nM
IC50: 2.2

Compound: CC(C)c1cc(COc2ccc3c4c(c(=O)oc3c2)CCCC4)nn1C [Example 55]
Units text: nM
IC50: 10

Compound: Cc1c(C)c2ccc(OCc3cc(C(C)C)n(C)n3)cc2oc1=O [Example 29]
Units text: nM
IC50: 2.2

Compound: COCc1cc(COc2ccc3c(C)c(C)c(=O)oc3c2)on1 [Example 6]
Units text: nM
IC50: 4.6
